Could you please report measured refractive index for the items listed next?
assay: refractive index (Na D-line) (dimensionless); conditions: 298.15 K; 101.33 kPa; Liquid; Standard Abbe refractometry
Please reply with the number alone, leaving off any unit.

Problem: Consider the compound Cc1ccc(C)cc1 and give its measured refractive index.
Solution: 1.4957

Problem: Would you kindly repeat that for Cc1ccccc1C ?
Solution: 1.4945

Problem: Would you kindly repeat that for Cc1cccc(C)c1 ?
Solution: 1.4946

Problem: Would you kindly repeat that for CCCCCCCCCC ?
Solution: 1.4108

====

settings: 298.15 K; 101.33 kPa; Liquid; Vibrating tube method
quantity_kind: mass density (kg/m3)
Return type: number; implicit unit kg/m3.

Problem: Consider the compound Cc1cccc(C)c1 and give its measured mass density.
Solution: 859.95

Problem: Would you kindly repeat that for Cc1ccccc1C ?
Solution: 859.54

Problem: Would you kindly repeat that for CCCCCCCCCC ?
Solution: 726.36

Problem: Would you kindly repeat that for Cc1ccc(C)cc1 ?
Solution: 856.71
